The values you see were collected from patent US8372967B2.

Test system: SGLT2 mRNA
Assay: SGLT2 mRNA in kidney of Balb/c mice, twenty 1-10-1 MOE gapmers, PPS 534 and PPS 553 (Table 74)
Format: in vivo, mouse
Conditions: i.p. 350 nmol/kg twice per week for two weeks, primer probe set 534, normalized to cyclophilin
Strand notation (5' to 3'): a small letter for the sugar, then the base; units joined by * are phosphorothioate-linked, units joined directly phosphodiester-linked; [ ] holds rarer units or linkages, { } end groups; capitals alone tell only the bases. e = 2'-O-(2-methoxyethyl) (MOE); [5mC] = 5-methylcytosine; d = 2'-deoxy (DNA)
Recorded % change in SGLT2 mRNA vs saline by entry
Give the quantity in % Saline, number only.

> print(dat)
                                  substance  unit.abbrev  value.measured
1  379696 (e[5mC]*dA*dG*d[5mC]*dT*dT*d[5mC]*dA*dG*dG*dT*eA; antisense) [compound 379696]     % Saline           −24.6
2  379693 (antisense e[5mC]*dA*dT*dG*dG*dT*dG*dA*dT*dG*d[5mC]*e[5mC]) [compound 379693]     % Saline           −51.6
3  379701 (e[5mC]*d[5mC]*dA*dT*dG*dG*dT*dG*dA*dA*dG*eA) [compound 379701]     % Saline            −0.3
4  370717 (antisense eT*dA*dG*d[5mC]*d[5mC]*dA*d[5mC]*d[5mC]*dA*dA*d[5mC]*eT) [compound 370717]     % Saline           −84.4

*Q* % change in SGLT2 mRNA vs saline for 379700 (e[5mC]*d[5mC]*dA*dG*d[5mC]*dA*dT*dG*dA*dG*dT*e[5mC]; antisense) [compound 379700] ?
*A* −2.8
